Reference source for all entries: ChEMBL document CHEMBL2321692

Tested on: Hepatitis C virus
Assay: Inhibition of HCV NS5B570n-Con1 expressed in Escherichia coli assessed as radiolabeled nucleotide monophosphate incorporation into acid-insoluble RNA products after 2 hrs by scintillation counting analysis
Parameters: species or system Hepacivirus hominis
Details: Con1, 2 h
property_label: IC50 (µM)
Unit µM implied. Number only.

Consider the worked cases shown below.
molecule	observed
CC1NC(=O)N(Cc2ccc(C(C)(C)C)cc2)C1=O (centres undefined)	220
CC(C)(C)c1cccc(-c2ccc[nH]c2=O)c1	4

Ask: Using the record for CC(C)C1NC(=O)N(Cc2ccc(C(C)(C)C)cc2)C1=O (centres undefined) , report its IC50.
Result: 21

Ask: Using the record for "CC(C)(C)c1ccc(CN2C(=O)CNC2=O)cc1" , report its IC50.
Result: 364

Ask: Using the record for CCC1NC(=O)N(Cc2ccc(C(C)(C)C)cc2)C1=O (centres undefined) , report its IC50.
Result: 108

Ask: Using the record for "Cc1ccccc1Oc1cccc(-c2ccc[nH]c2=O)c1" , report its IC50.
Result: 80

Ask: Using the record for "CC(C)(C)c1ccc(Cc2ccc[nH]c2=O)cc1" , report its IC50.
Result: 431

----------
Test: Inhibition of HCV NS5B570n-BK expressed in Escherichia coli assessed as radiolabeled nucleotide monophosphate incorporation into acid-insoluble RNA products after 2 hrs by scintillation counting analysis
Parameters: species or system Hepatitis C virus (isolate BK)
property_label: pIC50
As a rule, pIC50 stands for the negative log10 of the concentration, concentration in M.

Ask: Using the record for "c1ccc(NNc2ncnc3[nH]ncc23)cc1" , report its pIC50.
Result: 3.89
